biological target: ATP-dependent translocase ABCB1 (Homo sapiens, UniProt P08183)
Sequence (P08183 whole entry): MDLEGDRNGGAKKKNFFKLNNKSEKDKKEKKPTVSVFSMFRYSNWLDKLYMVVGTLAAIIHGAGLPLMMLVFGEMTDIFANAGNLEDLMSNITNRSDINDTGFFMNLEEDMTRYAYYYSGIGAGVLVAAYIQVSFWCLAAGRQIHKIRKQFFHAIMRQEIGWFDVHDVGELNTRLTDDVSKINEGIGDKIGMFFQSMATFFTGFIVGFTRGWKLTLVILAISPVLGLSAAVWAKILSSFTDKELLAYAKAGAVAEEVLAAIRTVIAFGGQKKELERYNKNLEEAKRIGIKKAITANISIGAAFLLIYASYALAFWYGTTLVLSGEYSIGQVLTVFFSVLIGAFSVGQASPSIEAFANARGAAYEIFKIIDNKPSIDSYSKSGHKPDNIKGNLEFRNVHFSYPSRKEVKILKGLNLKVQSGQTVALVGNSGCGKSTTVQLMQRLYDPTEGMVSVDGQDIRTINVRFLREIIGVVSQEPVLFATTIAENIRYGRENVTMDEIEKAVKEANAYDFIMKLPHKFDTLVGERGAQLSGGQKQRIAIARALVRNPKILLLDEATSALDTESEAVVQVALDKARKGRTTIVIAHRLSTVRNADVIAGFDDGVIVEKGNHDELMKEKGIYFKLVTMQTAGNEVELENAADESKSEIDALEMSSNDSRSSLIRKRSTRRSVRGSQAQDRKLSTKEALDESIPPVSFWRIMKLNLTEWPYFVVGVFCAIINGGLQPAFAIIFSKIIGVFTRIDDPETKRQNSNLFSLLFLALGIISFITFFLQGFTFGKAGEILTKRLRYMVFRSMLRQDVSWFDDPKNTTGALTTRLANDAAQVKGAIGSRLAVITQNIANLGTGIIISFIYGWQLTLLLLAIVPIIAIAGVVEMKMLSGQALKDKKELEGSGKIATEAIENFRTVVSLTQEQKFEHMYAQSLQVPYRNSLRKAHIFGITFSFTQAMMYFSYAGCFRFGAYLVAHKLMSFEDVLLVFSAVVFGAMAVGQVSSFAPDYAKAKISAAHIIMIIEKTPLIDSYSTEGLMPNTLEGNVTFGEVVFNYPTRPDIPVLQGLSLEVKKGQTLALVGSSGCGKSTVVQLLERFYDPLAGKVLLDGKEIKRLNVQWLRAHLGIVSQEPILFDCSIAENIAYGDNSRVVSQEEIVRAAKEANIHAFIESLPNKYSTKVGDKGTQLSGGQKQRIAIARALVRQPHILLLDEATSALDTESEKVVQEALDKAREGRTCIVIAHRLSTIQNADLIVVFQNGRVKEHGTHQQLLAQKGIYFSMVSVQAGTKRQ
pEC50: −log10 of the molar value.
Decision: pEC50 compared against 6; not below it gives met, below it gives not met.

Answer whether pEC50 of O=C(CCc1ccccc1)c1ccccc1OC[C@H](O)CN1CCN(C(=O)c2ccccc2)CC1 is greater than or equal to 6. met

Answer whether pEC50 of Cc1ccccc1N1CCN(C[C@@H](O)COc2ccccc2C(=O)CCc2ccccc2)CC1 is greater than or equal to 6. met

Answer whether pEC50 of CC(C)[C@@H]1N[C@@H]2c3cc(C#N)ccc3OC(C)(C)[C@H]2OC1=O is greater than or equal to 6. not met

Answer whether pEC50 of C[C@H]1C(=O)O[C@@H]2[C@H](c3cc(C#N)ccc3OC2(C)C)N1C is greater than or equal to 6. not met

Answer whether pEC50 of O[C@H](COc1ccccc1[C@@H](O)CCc1ccccc1)CN1CCCCC1 is greater than or equal to 6. not met

Answer whether pEC50 of CC(C)[C@@H]1CO[C@@H]2[C@@H](N1)c1cc(C#N)ccc1OC2(C)C is greater than or equal to 6. not met

Answer whether pEC50 of O=C(CCc1ccccc1)c1ccccc1OC[C@H](O)CN1CCC(O)(c2ccccc2)CC1 is greater than or equal to 6. met

Answer whether pEC50 of O=C(CCc1ccccc1)c1ccccc1OC[C@H](O)CN[C@@H](c1ccccc1)C1CCCCC1 is greater than or equal to 6. met

Answer whether pEC50 of O=C(CCc1ccccc1)c1cc(O)ccc1OC[C@H](O)CN1CCCCC1 is greater than or equal to 6. not met

Answer whether pEC50 of Cc1cccc(N2CCN(C[C@@H](O)COc3cccc(C(=O)c4ccccc4)c3)CC2)c1C is greater than or equal to 6. met
